This collection of values is drawn from ChEMBL document CHEMBL1201862.

The following molecules are shown together with reported GI50 values.
System: SK-MEL-5
Assay: NCI tumour cell line growth inhibition, 48 h
The source made the active and inactive calls. No stated cut-off is given here; in the data, active = GI50 up to about 1.1 µM and inactive = higher.

Molecule	GI50
Cc1cc2ncn(CC(=O)O)c2cc1C	> 100 µM (inactive)
Cc1nnc(N/N=C2\C(=O)Nc3ccccc32)n1N	> 100 µM (inactive)
CC(=O)OC1C=C(C=O)C(O)(C=O)C2(C)CCCC(C)(C)C12 (stereo unspecified)	1.17 µM (inactive)
S=C1SCN(C2CCCCCCCCCCC2)CN1C1CCCCCCCCCCC1	> 100 µM (inactive)
NC1CC(=O)c2sc(I)cc21 (stereo unspecified)	> 100 µM (inactive)
COc1cc(Cn2c3ccccc3c3cc(C)c4c(c32)C=CC(C)(CCC=C(C)C)O4)cc2c1[nH]c1ccccc12 (stereo unspecified) [CHRESTFOLINE C]	> 100 µM (inactive)

###

Measured GI50, listed per entry.
Test system: MDA-MB-231
Test: NCI tumour cell line growth inhibition, 48 h
Active and inactive are the calls of the source. No stated cut-off is given here; in the data, active = GI50 up to about 1.1 µM and inactive = higher.

Compound	System tested	GI50
CC(=O)C1C(=O)C(=O)N(c2ccc([N+](=O)[O-])cc2Cl)C1=O (stereo unspecified)	MDA-MB-231	> 100 µM (inactive)
Oc1cc(Cc2ccccc2)c(Cc2ccccc2)cc1O	MDA-MB-231	> 10 µM (inactive)
Nn1c(-c2ccccc2)nn(C(=O)c2ccccc2)c1=O	MDA-MB-231	> 100 µM (inactive)
CCC(=O)N(c1ccccc1)C(C)CN1CCC(O)(c2cccc(C(F)(F)F)c2)CC1 (stereo unspecified)	MDA-MB-231	21.6 µM (inactive)
CC(=O)/C(=C\NC(N)=S)C(=O)Nc1ccccc1C	MDA-MB-231	> 100 µM (inactive)
CCOC(=O)CSc1nc(-c2ccc(OC)cc2)c(C#N)c(=O)[nH]1	MDA-MB-231	> 100 µM (inactive)
CC(=N/NC(=S)N1CCCCCC1)/C(C)=N\NC(=S)N1CCCCCC1	MDA-MB-231	7.98 µM (inactive)
NC(=S)SC1=NC(=O)C2(NN1)c1ccccc1-c1ccccc12	MDA-MB-231	> 10 µM (inactive)
O=C1c2c(O)cccc2C(C2OC(CO)C(O)C(O)C2O)c2cc(CO)cc(O)c21 (stereo unspecified)	MDA-MB-231	> 100 µM (inactive)
CNc1ncnc(Sc2nc(N)nc3[nH]cnc23)c1[N+](=O)[O-]	MDA-MB-231	1.73 µM (inactive)
O=C(c1ccc(F)cc1)c1cccc(C(=O)c2ccc(F)cc2)n1	MDA-MB-231	38.6 µM (inactive)
Brc1ccc2[nH]cc(-c3nc(-c4c[nH]c5ccccc45)cs3)c2c1	MDA-MB-231	2.37 µM (inactive)
CC(C)c1cc(C(C)C)c(Cl)c(Cl)c1O.CC(C)c1cc(Cl)c(O)c(C(C)C)c1Cl	MDA-MB-231	20.1 µM (inactive)
Cn1c(S)nnc1-c1csc(-c2ccc(Cl)cc2)n1	MDA-MB-231	24 µM (inactive)
CCOC(=O)C(CC(C)C)NC(=O)C(N)Cc1ccc(N(CCCl)CCCl)cc1 (stereo unspecified)	MDA-MB-231	15.7 µM (inactive)
COc1ccc(/N=N/C(=O)NC(CC(C)C)C(=O)NCC(=O)O)cc1 (stereo unspecified)	MDA-MB-231	> 58.2 µM (inactive)
N#Cc1nnn(C2CCCCC2)c1O	MDA-MB-231	> 100 µM (inactive)
CC1(C)Oc2ccc(Cl)cc2C12CC2	MDA-MB-231	16.6 µM (inactive)
C1C2CC3CC1CC(Nc1nc(NC45CC6CC(CC(C6)C4)C5)nc(NC45CC6CC(CC(C6)C4)C5)n1)(C2)C3	MDA-MB-231	> 100 µM (inactive)
O=c1c2sc(=S)n(-c3ccc(F)cc3)c2ncn1/N=C/c1ccc(F)cc1F	MDA-MB-231	21.1 µM (inactive)
Nc1n[n+]([O-])c2ccc(Cl)cc2[n+]1[O-]	MDA-MB-231	32 µM (inactive)
